# Tested on: HOP-62 NSCLC
# protocol: NCI-60 one-dose screen, 48 h
# measurementSetup: 10 µM unless noted
About 83,000 compounds went through this panel and 20% of them were active in at least one assay; those are over-represented in the sample as a whole. Activity calls are given as the source filed them. Rule for the calls: active = growth percent below 10; inactive = the rest.
Possible outcomes: active, inactive

compound	assaySystem	assignedCategory
Brc1ccc(-c2cc(-c3ccc4c(c3)OCCO4)n[nH]2)s1	HOP-62 NSCLC	inactive
CN1CCN(c2ccc(Nc3nc(NCCCNS(=O)(=O)c4ccccc4)c4sccc4n3)cc2)CC1	HOP-62 NSCLC	inactive
CCOP(=O)(OCC)OC[C@]12CCC(C)(C)C[C@H]1C1=CC[C@@H]3[C@@]4(C)CC[C@H](OP(=O)(OCC)OCC)C(C)(C)[C@@H]4CC[C@@]3(C)[C@]1(C)CC2	HOP-62 NSCLC	inactive
COc1cc2c3c(cc4c5c(ccc4c3c1OC)OCO5)N(CCN(C)C)C2=O	HOP-62 NSCLC	active
Cn1c(SCC(=O)c2ccc(Br)cc2)nc2ccccc2c1=O	HOP-62 NSCLC	inactive
O=C(NCCNc1cc(-c2cn(-c3ccccc3)nc2-c2cccc(O)c2)ccn1)Nc1cc(C(F)(F)F)cc(C(F)(F)F)c1	HOP-62 NSCLC	inactive
O=C1[C@H]2Cc3c([nH]c4ccccc34)[C@H](c3ccc(Br)cc3)N2C(=O)CN1C1CCN(CC2CCCCC2)CC1	HOP-62 NSCLC	inactive
CN1CCN(c2ccc(Nc3nc(NCCNS(=O)(=O)c4ccccc4)c4sccc4n3)cc2)CC1	HOP-62 NSCLC	inactive
CC(=O)C1=C(C)NC(NNc2ccccc2)=NC1c1ccc([N+](=O)[O-])cc1 (stereo unspecified)	HOP-62 NSCLC	inactive
Fc1cc(F)cc(NNC(=S)c2ccccc2)c1	HOP-62 NSCLC	inactive
CC1=C(C)C(=O)C(Nc2ccc3c(c2)OCCO3)=C(Br)C1=O	HOP-62 NSCLC	inactive
